Tested on: Renilla luciferase (RLuc)
ASSAY COMMENT: normalised percent inhibition of luminescence (vs positive and negative controls); higher = stronger inhibition
ASSAY CONDITIONS: metal salt concentration 0.0005 mM; 100 mM HEPES buffer
MEASURED PROPERTY: normalised percent inhibition (%)
Write down the numeric answer in % and omit the unit.

Would you please look over these solved cases?
[Cl][Sn][Cl] [tin(II) chloride]; -29.8
[Cl][Fe][Cl] [iron(II) chloride]; -32.5

Indicate its recorded normalised percent inhibition; the compound in question is O=S(=O)([O-])[O-].[Fe+2] [iron(II) sulfate]
-18.6

Dear colleague, please send me the reported normalised percent inhibition for O=[N+]([O-])[O-].[Ag+] [silver nitrate] when you can.
-1.85

Quick one: give measured normalised percent inhibition for O=[N+]([O-])[O-].O=[N+]([O-])[O-].[Cu+2] [copper(II) nitrate]
-45.4

Give normalised percent inhibition for O.O.O.O.O.O.O.O=S(=O)([O-])[O-].[Mg+2] [magnesium sulfate]
-11.6

State, in one line, measured normalised percent inhibition of O=[N+]([O-])[O-].O=[N+]([O-])[O-].[Cd+2] [cadmium nitrate]
-51.3

Identify normalised percent inhibition associated with the compound CC#N.CC#N.CC#N.CC#N.F[B-](F)(F)F.[Cu+] [tetrakis(acetonitrile)copper(I) tetrafluoroborate]
-2.77

Using known records, supply normalised percent inhibition for [Cl][Pt-2]([Cl])([Cl])[Cl].[K+].[K+] [potassium tetrachloroplatinate(II)]
-6.41

Retrieve normalised percent inhibition measured for [Cl][Fe]([Cl])[Cl] [iron(III) chloride] and print it.
-24.2

====

Test system: firefly luciferase (FLuc)
ASSAY COMMENT: normalised percent inhibition of luminescence (vs positive and negative controls); higher = stronger inhibition
ASSAY CONDITIONS: metal salt concentration 0.005 mM; screening conditions buffer
MEASURED PROPERTY: normalised percent inhibition (%)
Just the number in %, nothing appended.

O=S(=O)([O-])[O-].[Fe+2] [iron(II) sulfate]; 9.94
[Cl][Sn][Cl] [tin(II) chloride]; -10.8

Look up and state reported normalised percent inhibition for CC#N.CC#N.CC#N.CC#N.F[B-](F)(F)F.[Cu+] [tetrakis(acetonitrile)copper(I) tetrafluoroborate]
13.5

Using the record for [Cl][Fe][Cl] [iron(II) chloride] , state its measured normalised percent inhibition.
1.02

Read the entry [Cl][Pt-2]([Cl])([Cl])[Cl].[K+].[K+] [potassium tetrachloroplatinate(II)] and write its reported normalised percent inhibition.
28.2

Give the value of normalised percent inhibition reported for the following: [Cl][Fe]([Cl])[Cl] [iron(III) chloride]
55.7

Please supply the value of reported normalised percent inhibition for the item O=[N+]([O-])[O-].[Ag+] [silver nitrate]
101

Could you please provide reported normalised percent inhibition for O=[N+]([O-])[O-].O=[N+]([O-])[O-].[Zn+2] [zinc nitrate] ? Thanks!
16.4

====

Recorded normalised percent inhibition by entry
System: NanoLuc luciferase (NLuc)
ASSAY COMMENT: normalised percent inhibition of luminescence (vs positive and negative controls); higher = stronger inhibition
ASSAY CONDITIONS: metal salt concentration 5 mM; 100 mM HEPES buffer
Enter your answer as a number in %; do not include the unit.

A selection of reference data follows.
O=[N+]([O-])[O-].O=[N+]([O-])[O-].[Cd+2] [cadmium nitrate]; 26.5
O=[N+]([O-])[O-].O=[N+]([O-])[O-].[Cu+2] [copper(II) nitrate]; 102

Look up normalised percent inhibition of O=[N+]([O-])[O-].[Ag+] [silver nitrate] and report it.
102

Given the compound CC#N.CC#N.CC#N.CC#N.F[B-](F)(F)F.[Cu+] [tetrakis(acetonitrile)copper(I) tetrafluoroborate] , write its reported normalised percent inhibition.
102

Return normalised percent inhibition for the following compound: O.O.O.O.O.O.O.O=S(=O)([O-])[O-].[Mg+2] [magnesium sulfate]
-5.03

====

Tested on: NanoLuc luciferase (NLuc)
ASSAY COMMENT: normalised percent inhibition of luminescence (vs positive and negative controls); higher = stronger inhibition
ASSAY CONDITIONS: metal salt concentration 2.5 mM; screening conditions buffer
Examples of molecules with documented normalised percent inhibition follow.
Answer with the number, then the unit.

[Cl][Fe]([Cl])[Cl] [iron(III) chloride]; 137%

Assign normalised percent inhibition to the following record: [Cl][Pt-2]([Cl])([Cl])[Cl].[K+].[K+] [potassium tetrachloroplatinate(II)]
130%

For the molecule [Cl][Fe][Cl] [iron(II) chloride] , give its reported normalised percent inhibition.
151%

Determine from records and report normalised percent inhibition for [Cl][Sn][Cl] [tin(II) chloride]
93.8%

Using the record for O=[N+]([O-])[O-].O=[N+]([O-])[O-].[Cu+2] [copper(II) nitrate] , state its measured normalised percent inhibition.
137%

# return recorded normalised percent inhibition for input O=[N+]([O-])[O-].O=[N+]([O-])[O-].O=[N+]([O-])[O-].[Ga+3] [gallium(III) nitrate]
89.2%

// fetch normalised percent inhibition given entry O=[N+]([O-])[O-].[Ag+] [silver nitrate]
135%

Return reported normalised percent inhibition. Input molecule: O=[N+]([O-])[O-].O=[N+]([O-])[O-].[Cd+2] [cadmium nitrate]
93.1%

For the molecule O=[N+]([O-])[O-].O=[N+]([O-])[O-].[Pb+2] [lead(II) nitrate] , give its measured normalised percent inhibition value.
52%

Give the measured normalised percent inhibition for O=[N+]([O-])[O-].O=[N+]([O-])[O-].[Zn+2] [zinc nitrate]
111%

Provide only the value of recorded normalised percent inhibition for O=S(=O)([O-])[O-].[Fe+2] [iron(II) sulfate]
157%

Identify measured normalised percent inhibition associated with CC#N.CC#N.CC#N.CC#N.F[B-](F)(F)F.[Cu+] [tetrakis(acetonitrile)copper(I) tetrafluoroborate]
161%

====

Listing of entries alongside the reported normalised percent inhibition.
Tested on: NanoLuc luciferase (NLuc)
ASSAY COMMENT: normalised percent inhibition of luminescence (vs positive and negative controls); higher = stronger inhibition
ASSAY CONDITIONS: metal salt concentration 2.5 mM; 100 mM HEPES buffer
Give the value, in units of %, as a plain number.

[Cl][Fe][Cl] [iron(II) chloride]; 99.7
[Cl][Sn][Cl] [tin(II) chloride]; -3.02
O=[N+]([O-])[O-].[Ag+] [silver nitrate]; 102
[Cl][Fe]([Cl])[Cl] [iron(III) chloride]; 102

Return reported normalised percent inhibition. Input molecule: [Cl][Pt-2]([Cl])([Cl])[Cl].[K+].[K+] [potassium tetrachloroplatinate(II)]
93.7

Supply reported normalised percent inhibition belonging to this molecule: O.O.O.O.O.O.O.O=S(=O)([O-])[O-].[Mg+2] [magnesium sulfate]
-6.56

Return normalised percent inhibition for the following molecule: O=[N+]([O-])[O-].O=[N+]([O-])[O-].[Cd+2] [cadmium nitrate]
20.6

Return the recorded normalised percent inhibition value; entry: O=S(=O)([O-])[O-].[Fe+2] [iron(II) sulfate]
101

Give a short answer stating reported normalised percent inhibition for CC#N.CC#N.CC#N.CC#N.F[B-](F)(F)F.[Cu+] [tetrakis(acetonitrile)copper(I) tetrafluoroborate] .
102

Note normalised percent inhibition for the molecule shown: O=[N+]([O-])[O-].O=[N+]([O-])[O-].[Cu+2] [copper(II) nitrate]
101

====

System: Renilla luciferase (RLuc)
ASSAY COMMENT: normalised percent inhibition of luminescence (vs positive and negative controls); higher = stronger inhibition
ASSAY CONDITIONS: metal salt concentration 0.001 mM; 100 mM HEPES buffer
MEASURED PROPERTY: normalised percent inhibition (%)
Only the number, expressed in %, is required.

// known answers, use as guide
O=[N+]([O-])[O-].[Ag+] [silver nitrate]; -11.8
[Cl][Sn][Cl] [tin(II) chloride]; -28.6
O.O.O.O.O.O.O.O=S(=O)([O-])[O-].[Mg+2] [magnesium sulfate]; -17
CC#N.CC#N.CC#N.CC#N.F[B-](F)(F)F.[Cu+] [tetrakis(acetonitrile)copper(I) tetrafluoroborate]; -10.8
O=S(=O)([O-])[O-].[Fe+2] [iron(II) sulfate]; -4.06
[Cl][Fe][Cl] [iron(II) chloride]; -19.3

Tell us which normalised percent inhibition value is on record for [Cl][Fe]([Cl])[Cl] [iron(III) chloride]
-15.5

Fill in reported normalised percent inhibition for this entry: O=[N+]([O-])[O-].O=[N+]([O-])[O-].[Cu+2] [copper(II) nitrate]
-40

Quick one: give measured normalised percent inhibition for [Cl][Pt-2]([Cl])([Cl])[Cl].[K+].[K+] [potassium tetrachloroplatinate(II)]
-11.3

Return reported normalised percent inhibition. Input molecule: O=[N+]([O-])[O-].O=[N+]([O-])[O-].[Cd+2] [cadmium nitrate]
-29.6
